The following compounds were reported with Ki values on Beta-secretase 2 (Homo sapiens) in different studies.

Example compounds with recorded Ki:
- COMPOUND: "C[C@@]1(c2cc(NC(=O)c3cnc(C(F)(F)F)cn3)ccc2F)CS(=O)(=O)C2(CCCC2)C(=N)N1"
  Ki: "< 20 nM"
- COMPOUND: "Cc1csc(C[C@H](C)C(=O)N[C@@H](CNC(=O)OC(C)(C)C)C(=O)N[C@@H](CC(C)C)[C@@H](O)C[C@@H](C)C(=O)N[C@H](C(=O)NCC(C)C)C(C)C)n1"
  Ki: "100 to 600 nM"
- COMPOUND: "COc1cccc(CNCC(O)C(Cc2ccccc2)NC(=O)c2cccc(C(=O)N(Cc3nc(C)cs3)C3CC3)c2)c1 (centres unmarked)"
  Ki: "> 501 nM"

Please report the recorded Ki for CSC[C@H](NC(=O)C(C)Cc1nc(C)cs1)C(=O)N[C@H](CC(C)C)[C@@H](O)C[C@@H](C)C(=O)N[C@@H](C(=O)NCC(C)C)C(C)C (some centres unmarked) .
100 to 1000 nM

Try CC[C@@H](Cc1nc(C)cs1)C(=O)N[C@@H](CS(C)(=O)=O)C(=O)N[C@H](CC(C)C)[C@@H](O)C[C@@H](C)C(=O)N[C@@H](C(=O)NCC(C)C)C(C)C next.
100 to 1000 nM

Moving on to the next compound: CC(C)NC(=O)c1cccc(CNCC(O)C(Cc2ccccc2)NC(=O)c2cc(C(=O)NC(C)c3ccccc3)cc(N(C)S(C)(=O)=O)c2)c1 (centres unmarked)
> 501 nM

====

// note: Ki values for Beta-secretase 2 (Homo sapiens) were reported in different studies
MEASUREMENT_NAME: Ki (µM)

Examples with their reported Ki follow.
- COMPOUND_STRING: "CN1C(=N)N[C@@]2(c3cc(C#N)ccc3F)CO[C@@H](C3CC3)C[C@H]2C1=O"
  Ki, µM: 0.398
- COMPOUND_STRING: "C[C@H]1C[C@H]2C(=O)N(C)C(=N)N[C@@]2(c2ccc(F)cc2F)CO1"
  Ki, µM: 0.105
- COMPOUND_STRING: "CC#CCOc1cnc2c(Nc3cc([C@]4(C)CS(=O)(=O)[C@@](C)(C5CC5)C(N)=N4)c(F)cn3)nccc2c1"
  Ki, µM: 0.00064

a = CC1(C)C(=N)N[C@@]2(CCOc3ccc(NC(=O)c4ccn(C(F)F)n4)cc32)CS1(=O)=O
b = CN1C(=N)N[C@@]2(c3cc(Oc4cccc(-n5cccn5)n4)ccc3F)CO[C@@H](C3CC3)C[C@H]2C1=O
c = COCCOc1ccc(F)c([C@]23CO[C@@H](C4CC4)C[C@H]2C(=O)N(C)C(=N)N3)c1
d = CC1(C)C(=N)N[C@@]2(CCCc3ccc(NC(=O)c4cn5cc(C#N)ccc5n4)cc32)CS1(=O)=O
Your job: order these 4 records by Ki, ascending. Rank the items, then write their labels in that order.
a, b, c, d
(a: 0.001 µM, b: 0.0135 µM, c: 0.068 µM, d: 1.12 µM)

a = Cc1cc(C(=O)Nc2ccc(F)c([C@@]3(C)NC(=N)N(C)S(=O)(=O)C34CC4)c2)no1
b = C[C@H]1C[C@@H]2[C@](c3ccccc3F)(CO1)NC(=N)C(C)(C)S2(=O)=O
c = CN1C(=N)N[C@](C)(c2cc(NC(=S)c3ccc(C(F)(F)F)cn3)cc(F)c2F)CS1(=O)=O
d = CN1C(=N)N[C@](C)(c2sc(-c3nnc(-c4ccc(OCc5ccccc5)cc4)o3)cc2Cl)CS1(=O)=O
Place the items in sequence of falling Ki. Response field: labels, in requested order.
d, a, b, c
(d: 0.527 µM, a: 0.22 µM, b: 0.0725 µM, c: 0.021 µM)

====

A compilation of pKi values for UniProt Q9Y5Z0 from the published literature.
pKi: −log10 of the molar value.

# annotated cases, reported pKi shown
- COMPOUND: "CN1C(=N)N[C@@]2(c3cc(NC(=O)c4ccc(Cl)cn4)ccc3F)COC[C@H]2S1(=O)=O"
  MEASUREMENT_NAME: "pKi"
  MEASUREMENT: 8.89
- COMPOUND: "CN1CC2(C1)C(=N)N[C@](C)(c1cc(NC(=O)c3ccc(C#N)cn3)ccc1F)CS2(=O)=O"
  MEASUREMENT_NAME: "pKi"
  MEASUREMENT: 8.85

Give its pKi value. Item: CC[C@@H](Cn1nc(C)cc1C)C(=O)N[C@@H](C[S+](C)[O-])C(=O)N[C@@H](CC(C)C)[C@@H](O)C[C@@H](C)C(=O)N[C@@H](C(=O)NCC(C)C)C(C)C (stereo partly drawn)
> 7.00

Now try CC(C)CNC(=O)C(NC(=O)C(C)CC(O)C(CC(C)C)NC(=O)c1cc(C(=O)N(C)Cc2ccccc2)cc(N(C)S(C)(=O)=O)c1)C(C)C (stereo not drawn) .
> 6.39

Entry to check: CSC[C@H](NC(=O)OCc1nc(C)sc1C)C(=O)N[C@H](CC(C)C)[C@@H](O)C[C@@H](C)C(=O)N[C@@H](C(=O)NCC(C)C)C(C)C
> 7.00

Next record, please: CC(C)CNC(=O)C(NC(=O)C(C)CC(O)C(CC(C)C)NC(=O)c1cccc(C(=O)N(C)Cc2cnccn2)c1)C(C)C (stereo not drawn)
5.70 to 6.39

====

Before we begin, note that these pKi values for Beta-secretase 2 (Homo sapiens) originate from several publications.
pKi: −log10 of the molar value.

- MOLECULE: "Cc1nc(COC(=O)N[C@@H](CS(C)(=O)=O)C(=O)N[C@H](CC(C)C)[C@@H](O)C[C@@H](C)C(=O)N[C@@H](C(=O)NCC(C)C)C(C)C)c(C)o1"
  MEASUREMENT: "6.00 to 7.00"

Look at this molecule and give its reported pKi. C[C@@]1(c2sc(-c3cncc(C(F)(F)F)c3)cc2Cl)CS(=O)(=O)C2(CCOCC2)C(=N)N1
> 7.30

Record: CCC(C)SC[C@H](NC(=O)OCc1nc(C)cs1)C(=O)N[C@H](CC(C)C)[C@@H](O)C[C@@H](C)C(=O)N[C@@H](C(=O)NCC(C)C)C(C)C (stereo partly shown)
6.00 to 7.00

Next up: COc1cccc(CNCC(O)C(Cc2ccccc2)NC(=O)c2cccc(C(=O)N(C)Cc3nc(C)cs3)c2)c1 (stereo not shown)
< 6.30

Another molecule to check: Cc1csc(COC(=O)N[C@@H](CS(=O)(=O)C(C)C)C(=O)N[C@H](CC(C)C)[C@@H](O)C[C@@H](C)C(=O)N[C@@H](C(=O)NCC(C)C)C(C)C)n1
6.00 to 7.00

Ok, now Cc1nc(COC(=O)N[C@@H](CS(=O)(=O)C(C)C)C(=O)N[C@H](CC(C)C)[C@@H](O)C[C@@H](C)C(=O)N[C@@H](C(=O)NCC(C)C)C(C)C)c(C)o1
6.00 to 7.00

How about this molecule: COc1ccc(C(=O)Nc2ccc(F)c([C@]3(C)CS(=O)(=O)C4(CCC4)C(=N)N3)c2)nc1
> 7.70

Moving on to the next molecule: Cc1noc(COC(=O)N[C@@H](CS(C)(=O)=O)C(=O)N[C@H](CC(C)C)[C@@H](O)C[C@@H](C)C(=O)N[C@@H](C(=O)NCC(C)C)C(C)C)n1
6.00 to 7.00

Next up: CCC(CC)S(=O)(=O)C[C@H](NC(=O)OCc1nc(C)cs1)C(=O)N[C@H](CC(C)C)[C@@H](O)C[C@@H](C)C(=O)N[C@@H](C(=O)NCC(C)C)C(C)C
6.00 to 7.00

Now consider Cc1cccc(CNCC(O)C(Cc2ccccc2)NC(=O)c2cc(C(=O)NC(C)c3ccccc3)cc(N(C)S(C)(=O)=O)c2)n1 (stereo not shown) .
6.30 to 6.52

====

pKi: −log10 of the molar value.
Compiled pKi measurements on Beta-secretase 2 (Homo sapiens) taken from the literature.

Recorded results for 3 compounds are shown here.
- COMPOUND: "Cc1csc(COC(=O)N[C@@H](CSCC(C)C)C(=O)N[C@H](CC(C)C)[C@@H](O)C[C@@H](C)C(=O)N[C@@H](C(=O)NCC(C)C)C(C)C)n1"
  TARGET_DESC: "Beta-secretase 2 (Homo sapiens)"
  MEASUREMENT: "6.00 to 7.00"
- COMPOUND: "Cc1csc(CC(C)C(=O)N[C@@H](CS(C)(=O)=O)C(=O)N[C@H](CC(C)C)[C@@H](O)C[C@@H](C)C(=O)N[C@@H](C(=O)NCC(C)C)C(C)C)n1 (some centres unmarked)"
  TARGET_DESC: "Beta-secretase 2 (Homo sapiens)"
  MEASUREMENT: "6.00 to 7.00"
- COMPOUND: "Cc1cc(C)n(CCC(=O)N[C@@H](CS(C)(=O)=O)C(=O)N[C@@H](CC(C)C)[C@@H](O)C[C@@H](C)C(=O)N[C@@H](C(=O)NCC(C)C)C(C)C)n1"
  TARGET_DESC: "Beta-secretase 2 (Homo sapiens)"
  MEASUREMENT: "6.00 to 7.00"

Recorded pKi for CSC[C@H](NC(=O)OCc1csc(C)n1)C(=O)N[C@H](CC(C)C)[C@@H](O)C[C@@H](C)C(=O)N[C@@H](C(=O)NCC(C)C)C(C)C , please?
6.00 to 7.00

Same question for C[C@@]1(c2cc(NC(=O)c3cn4ccsc4n3)ccc2F)CS(=O)(=O)C2(CCCC2)C(=N)N1 please.
> 7.70

Okay, and Cc1csc(CN(C)C(=O)c2cccc(C(=O)NC(CC(C)C)C(O)CC(C)C(=O)NC(C(=O)NCC(C)C)C(C)C)c2)n1 (centres unmarked) ?
5.70 to 6.39

Can you handle C=CCS(=O)(=O)C[C@H](NC(=O)CCn1nc(C)cc1C)C(=O)N[C@H](CC(C)C)[C@@H](O)C[C@@H](C)C(=O)N[C@@H](C(=O)NCC(C)C)C(C)C next?
> 7.00

Then this compound: CC(C)CC(NC(=O)c1cc(C(=O)NC(C)c2ccccc2)cc(N(C)C(=O)OC2CCOC2)c1)C(O)CC(C)C(=O)NC(C(=O)NC(C)C)C(C)C (centres unmarked)
> 6.39
